The origin of these recorded values is PubChem BioAssay (NCI).

Measured TGI of individual entries
Test system: NCI-H23 lung
method-description: NCI tumour cell line growth inhibition, 48 h

{"columns": ["compound", "target-entity", "TGI"],
 "data": [
  ["O=c1[nH]nc(-c2ccc([N+](=O)[O-])cc2)n1/N=C/c1ccc([N+](=O)[O-])cc1", "NCI-H23 lung", "> 100 µM"],
  ["Nc1ccccc1/C=C\\c1ccccc1", "NCI-H23 lung", "> 100 µM"],
  ["COC(=O)C1=C(O)C(C(=O)OC)[C@]2(O)[C@H](C(=O)OC)[C@H]1C[C@@H](c1cccc(OC)c1)[C@H]2C(=O)OC (some centres not stated)", "NCI-H23 lung", "> 100 µM"],
  ["Cc1c(C#N)c2nnn(-c3ccc([N+](=O)[O-])cc3)c(=O)n2c1-c1ccccc1", "NCI-H23 lung", "18.5 µM"],
  ["CC1(C)CC(=O)C2=C(C1)NC(SCC(=O)O)=C(C#N)C2c1ccc(Br)cc1 (configuration not stated)", "NCI-H23 lung", "> 100 µM"],
  ["c1ccc2c(c1)nc1n2CCNC1", "NCI-H23 lung", "> 100 µM"],
  ["CN1[C@@H]2CCCC[C@H]2N(C)P1(=O)C(O)/C=C/c1ccccc1 (some centres not stated)", "NCI-H23 lung", "> 100 µM"],
  ["OCCN1CN(c2nc(N3CN(CCO)C3)nc(N3CN(CCO)C3)n2)C1", "NCI-H23 lung", "50 µM"],
  ["O=C(Nc1ccc(-n2cc(-c3ccncc3)c(-c3ccc(O)c(Cl)c3)n2)cc1)c1cc(Cl)cc(Cl)c1", "NCI-H23 lung", "> 32.5 µM"],
  ["CC(=O)NC1=C(Nc2ccc(C)cc2)C(=O)c2ccccc2C1=O", "NCI-H23 lung", "19.6 µM"],
  ["CN(C)Cc1cc(C(C)(C)C)cc(CNC2CCCCC2)c1O", "NCI-H23 lung", "> 100 µM"],
  ["C=C1CC[C@@]2(C#N)[C@H]3[C@H](CC[C@@H]2C)[C@@H](C)C[C@@H](CC(C)(C)C#N)[C@H]13", "NCI-H23 lung", "32.6 µM"],
  ["COc1cc2c(c(OC)c1OC)-c1ccc(SC)c(=O)cc1[C@@H](NC(=O)c1ccc(OC(C)=O)cc1)CC2", "NCI-H23 lung", "0.049 µM"],
  ["CC(/C=N/N(C)C1=NCCCCN1)=N/N(C)C1=NCCCCN1", "NCI-H23 lung", "> 100 µM"],
  ["COc1ccccc1C1=C2C(=O)N(C)C(c3ccccc3OC)=C2C(=O)N1C", "NCI-H23 lung", "> 100 µM"],
  ["Cc1ccc(C2(N3CCCC3)OC(C)(C)c3cccc4cccc2c34)cc1 (configuration not stated)", "NCI-H23 lung", "29.9 µM"],
  ["COc1cc(C(=O)O[C@H](C(=O)NCCNC(=O)[C@@H](OC(=O)c2cc(OC)cc3c(C)cccc23)[C@]2(C)CO2)[C@]2(C)CO2)c2cccc(C)c2c1", "NCI-H23 lung", "0.0987 µM"],
  ["N#Cc1ccc(/C=N/NC(=O)CSCC(=O)N/N=C/c2ccc(C#N)cc2)cc1", "NCI-H23 lung", "> 100 µM"],
  ["CCSCC(=O)N1CCc2c([nH]c3ccccc23)C1=O", "NCI-H23 lung", "> 100 µM"],
  ["CC(C)=NNc1cnnc2ccc([N+](=O)[O-])cc12", "NCI-H23 lung", "> 100 µM"],
  ["C=CCn1c(-c2ccccc2)cs/c1=N\\C(P(=O)(O)O)P(=O)(O)O", "NCI-H23 lung", "> 100 µM"],
  ["COc1ccc2c(c1)nc(N)c1c3cc(OC)c(OC)cc3cn21", "NCI-H23 lung", "5.7 µM"],
  ["N#Cc1ccc(OC(=O)c2ccc(N=C(N)N)cc2)cc1", "NCI-H23 lung", "> 100 µM"],
  ["COC(=O)c1c(C)ccc2c(O)c3c(cc12)C(=O)c1c2c(cc(O)c1C3=O)C1(C)OC(C)(O2)C(O)C(N(C)C)C1O (configuration not stated)", "NCI-H23 lung", "3.03 µM"],
  ["Nc1nc2cc(CNc3ccc(C(=O)O)cc3)ccc2nc1-c1ccccc1", "NCI-H23 lung", "> 100 µM"],
  ["CCOC(=O)/C(=C\\c1ccc(OCc2ccccc2)c(OC)c1)C(=O)c1ccccc1", "NCI-H23 lung", "35.2 µM"],
  ["c1nncn1C12C3C4C5C3C1C5C42 (configuration not stated)", "NCI-H23 lung", "> 100 µM"]
]}
